Test system: Wolbachia pipientis
Test: Anti-Wolbachia Cell-Based Screen
Assay type: functional
Parameters: scale not given: in the data most compounds retested in dose-response had high values
Settings: 5 µM
Hit rate of the full screen: of about 48,000 compounds, about 13,000 (27%) showed an effect of 50% or more. Some of the results follow.
quantity kind: Percent Effect
Mention the unit after the number when you answer.

N#Cc1cc(S(N)(=O)=O)ccc1NC1CCc2cc(Cl)ccc21 (stereo unspecified) ... -7.649%

Percent Effect reported for this compound Cc1oncc1C(=O)N1CCC2(CC1)CC(c1ccccc1)C(=O)N2C (stereo unspecified) : -5.401%

Percent Effect reported for this compound `CNS(=O)(=O)CC(=O)N1CCC(c2ccc(F)c(F)c2)CC1` : -2.799%

###

Test system: Wolbachia pipientis
Assay: Anti-Wolbachia Cell-Based Screen
Assay type: functional
Parameters: scale not given: in the data most compounds retested in dose-response had high values
Conditions: 5 µM
About 13,000 (27%) of roughly 48,000 compounds showed an effect of 50% or more. This is one part of the list.
quantity kind: Percent Effect (%)
Write it as a number; the unit % goes unstated.

Reference set, count: 5
CCCc1noc(CCC(=O)NC(C)c2nnc3n2CCCCC3)n1 (stereo unspecified) ... -7.808
CS(=O)(=O)N1CCN(c2ccc(Nc3ccccn3)nn2)CC1 ... 2.595
Cc1ccc([C@@H]2CN(C(=O)c3cc(C)no3)C[C@H]2NC(=O)C2CC2)cc1 ... -6.322
CC(C)c1noc(CCCC(=O)NC(C)c2nnc3n2CCC3)n1 (stereo unspecified) ... -3.557
CC(C)c1noc(CCC(=O)NC(C)c2nnc3n2CCC3)n1 (stereo unspecified) ... -10.52

Percent Effect reported for this compound `CNC(=O)c1cccc(NC(=O)c2ccnc(N(C)C)c2)c1C` : -1.756

Percent Effect reported for this compound Cc1noc(C)c1CCC(=O)NC(C)c1nnc2n1CCC2 (stereo unspecified) : -11.45

Percent Effect reported for this compound CC(NC(=O)CCCc1nc(C(C)(C)C)no1)c1nnc2n1CCC2 (stereo unspecified) : 7.07

Percent Effect reported for this compound CC(C)CS(=O)(=O)CC(=O)NC(C)c1nnc2n1CCC2 (stereo unspecified) : 85.29

Percent Effect reported for this compound `N#CC1(NC(=O)COC(=O)Cn2cccn2)CCCC1` : 0.9044

Percent Effect reported for this compound CC(C)c1noc(CCC(=O)NC(C)c2nnc3n2CCCCC3)n1 (stereo unspecified) : -3.569

###

Test system: Wolbachia pipientis
Assay: Anti-Wolbachia Cell-Based Screen
Format: functional
Design: scale not given: in the data most compounds retested in dose-response had high values
Conditions: 5 µM
In all, about 48,000 compounds went through this assay and about 13,000 (27%) showed an effect of 50% or more. The list shows a part of the results.
quantity kind: Percent Effect (%)
Write it as a number; the unit % goes unstated.

O=C(NCC(F)(F)F)C1CCC(=O)N(C2CCCC2)C1 (stereo not drawn) ... 11.17

Percent Effect reported for this molecule `CCc1nc(C)c([C@H]2CN(C)C[C@@H]2C(=O)NC(C)(C)c2ccccc2)[nH]1` : -16

###

Test system: Wolbachia pipientis
Assay: Anti-Wolbachia Cell-Based Screen
Format: functional
Parameters: scale not given: in the data most compounds retested in dose-response had high values
Settings: 5 µM
Screen size: about 48,000 compounds; about 13,000 (27%) showed an effect of 50% or more. Some of the results follow.
Reported Percent Effect values for a set of compounds
Write it as a number; the unit % goes unstated.

Cc1ccc(S(=O)(=O)N2CC[C@@H]3C[C@H](NC(=O)c4n[nH]cc4Cl)[C@@H]32)cc1 ... 97.43

Let us move to another entry and its Percent Effect.
Percent Effect reported for this compound `N#Cc1ccnc(N2CCC(c3nccn3Cc3cscn3)CC2)c1` : 9.295

###

Test system: Wolbachia pipientis
Test: Anti-Wolbachia Cell-Based Screen
Type: functional
Set-up: scale not given: in the data most compounds retested in dose-response had high values
Conditions: 5 µM
The whole screen tested about 48,000 compounds, of which about 13,000 (27%) showed an effect of 50% or more. This is one part of the list.
Reported Percent Effect values for a set of molecules
Mention the unit after the number when you answer.

CC1COCCN1Cc1nc(-c2ccsc2)no1 (configuration not stated) ... 130%

Percent Effect reported for this molecule COc1cc(F)ccc1NC(=O)NC(C)C(=O)NC(C)(C)C (configuration not stated) : -5.015%

Percent Effect reported for this molecule COCCC1(CO)CCCN(Cc2ccc(C(F)(F)F)nc2)C1 (configuration not stated) : 4.896%

Percent Effect reported for this molecule CC(=O)N1CCN(Cc2ccsc2)CC2(CC(=O)N(C)C2)C1.O=C(O)C(F)(F)F (configuration not stated) : 101.7%

Percent Effect reported for this molecule C=Cc1ccc(C(=O)N2CCCC(Nc3ccccc3)C2)cc1 (configuration not stated) : -22.58%

Percent Effect reported for this molecule c1csc(-c2noc(CC3CCCO3)n2)c1 (configuration not stated) : 5.637%

Percent Effect reported for this molecule `O=C(c1ccc(F)cc1F)N1C[C@H]2CC[C@@H]1CN(Cc1ccccc1)C2` : -4.594%

###

Reported Percent Effect values for a set of compounds
Test system: Wolbachia pipientis
Assay: Anti-Wolbachia Cell-Based Screen
Format: functional
Parameters: scale not given: in the data most compounds retested in dose-response had high values
Details: 5 µM
Among all 48,000 compounds or so, about 13,000 (27%) showed an effect of 50% or more. The list shows a part of the results.
Mention the unit after the number when you answer.

Cc1cc(CN2CCN(C(=O)NCc3nc(C)cs3)CC2)on1 ... -3.882%

Percent Effect reported for this compound `CCS(=O)(=O)N1C[C@H]2CC[C@@]3(N=C(C)N(CC(C)C)C3=O)[C@H]2C1` : 17.11%

Percent Effect reported for this compound OC(CNCCn1cccn1)COc1ccc(Br)cc1 (stereo not given) : 2.37%

Percent Effect reported for this compound `CS(=O)(=O)N1CC[C@H]2OCC[C@@]2(C(=O)NCc2ccccn2)C1.O=C(O)C(F)(F)F` : 125.2%

Percent Effect reported for this compound Cn1cc(CN2CCCC3(COCCN(Cc4c[nH]nn4)C3)C2)cn1.O=C(O)C(F)(F)F.O=C(O)C(F)(F)F (stereo not given) : -3.726%

###

System: Wolbachia pipientis
Assay: Anti-Wolbachia Cell-Based Screen
Assay type: functional
Design: scale not given: in the data most compounds retested in dose-response had high values
Conditions: 5 µM
In all, about 48,000 compounds went through this assay and about 13,000 (27%) showed an effect of 50% or more. Some of the results follow.
quantity kind: Percent Effect (%)
Write it as a number; the unit % goes unstated.

Reference set, count: 8
O=C(NC1CC1)c1ccnc(N2CCOC(c3ccc(Cl)c(Cl)c3)C2)c1 (centres undefined) ... -23.24
Cc1ccsc1CN(CCCN(C)C)Cc1ccccn1 ... 97.01
Cn1cc(CN2CC[C@H]3O[C@@H](COCc4cccnc4)CC[C@H]32)cn1.O=C(O)C(F)(F)F.O=C(O)C(F)(F)F ... -19.84
CCOCC(=O)N(Cc1ccccn1)Cc1ccccc1C ... -6.914
Cn1ccnc1CN1CCCC1Cn1cccn1 (centres undefined) ... 107.8
O=C(C(CNCc1ccsc1)c1ccccc1)N1CCOCC1 (centres undefined) ... 2.12
CCn1nc2c(cc1=O)CN(Cc1nc(CCOC)no1)CC2 ... -7.437
Cc1cccc(CN2C(=O)CCC23CCN(C(=O)N2CCCC2)CC3)n1.O=C(O)C(F)(F)F ... 96.5

Percent Effect reported for this compound `Cc1ccc(N2CC[C@@H]3O[C@@H](c4ccncn4)C[C@H]3C2)nn1` : 17.26

Percent Effect reported for this compound `CCOCCC(=O)Nc1cc(C)cnc1OC` : 1.473

Percent Effect reported for this compound Cc1cccc(CN2CCC3(CCCN(C(=O)N4CCCC4)C3)C2=O)n1.O=C(O)C(F)(F)F (centres undefined) : -13.65

Percent Effect reported for this compound `CCN(CC)Cc1cc(C(=O)N2CC(C)(C)[C@@](C)(O)C2)c(C)o1` : -3.4

Percent Effect reported for this compound CCC1CN(Cc2nnc(C3CC3)o2)CCC(=O)N1Cc1ccccc1 (centres undefined) : 1.6

Percent Effect reported for this compound Cc1cnn(CC2CCCCN2Cc2nc(-c3ccoc3)no2)c1 (centres undefined) : 6.468

Percent Effect reported for this compound `CN(Cc1cc(F)ccc1F)CC(C)(CO)CO` : 17.08

Percent Effect reported for this compound O=C(C1CCCCN1Cc1nccn1CC(F)(F)F)N1CCCC1 (centres undefined) : -10.67

Percent Effect reported for this compound Cn1ccnc1CN1CCCCC1Cn1cccn1 (centres undefined) : 5.027

Percent Effect reported for this compound `CCN1C[C@H]2C3(CCN(C(C)=O)CC3)CC[C@@]2(C(=O)N(C)C)C1.O=C(O)C(F)(F)F` : 6.202

Percent Effect reported for this compound `COCCO[C@H]1CCN(Cc2cccs2)[C@H]1Cc1cccnc1.O=C(O)C(F)(F)F.O=C(O)C(F)(F)F` : -0.3476

Percent Effect reported for this compound CC(=O)N1CCN(Cc2cccc3c2sc2ccccc23)CC(O)C1 (centres undefined) : -0.8612

Percent Effect reported for this compound Cn1ccc(C(=O)N2CCOC(c3ccccc3)C2)cc1=O (centres undefined) : -8.227

Percent Effect reported for this compound Cc1cc(N2CCOC(c3ccc(C(N)=O)cn3)C2)ncn1 (centres undefined) : 105.9

Values were extracted from ChEMBL document CHEMBL3988442.
